Experiment: 1-octanol-water partition coefficient, log P of the neutral form compound by HILIC analysis
Assay type: physicochemical
Endpoint: logP
Enter the number alone.

Entry COc1cc(COc2cccc(NC(=O)C3CCN(c4ccncc4)CC3)c2)cc(OC)c1 , logP reported as 4.9

compound O=C(Nc1cccc(OCc2cccc(F)c2)c1)C1CCN(c2ccncc2)CC1 , logP observed: 5

Per the records, this compound ( CS(=O)(=O)c1ccc(COc2cccc(NC(=O)C3CCN(c4ccncc4)CC3)c2)cc1 ) has logP equal to 4.9

// O=C(Nc1cccc(OCc2cc(F)cc(F)c2)c1)C1CCN(c2ccncc2)CC1 : logP value = 5.2

Sample O=C(Nc1cccc(OCc2ccc(F)cc2)c1)C1CCN(c2ccncc2)CC1 ; logP observed: 5.1

Note to self: logP recorded for O=C(Nc1cccc(OCc2ccccc2F)c1)C1CCN(c2ccncc2)CC1 was 4.9

Entry under test: O=C(Nc1cccc(OCc2ccc3c(c2)OCO3)c1)C1CCN(c2ccncc2)CC1 . Its logP was 4.9

The recorded logP for COc1ccc(COc2cccc(NC(=O)C3CCN(c4ccncc4)CC3)c2)cc1OC is 4.9
